# System: CCRF-CEM leukemia
# TEST METHOD NOTES: NCI tumour cell line growth inhibition, 48 h
MEASURED QUANTITY: TGI

                                   compound  measured_quantity  assay_value
0  Nc1ncnc2c1nc(Cl)n2C1OC(CO)C(O)C1O (stereo not given)                TGI    > 25.5 µM
1  COc1ccc(-c2cc(-c3ccco3)c(C#N)c(=O)[nH]2)cc1                TGI     > 100 µM
2  CC(C)[C@@H]1NC(=O)[C@@H]2N=C(O[C@H]2C)[C@H](C(C)C)NC(=O)C2N=C1O[C@H]2C                TGI     > 100 µM
3      O=C(C(=O)c1cc(Br)ccc1O)c1cc(Br)ccc1O                TGI     > 100 µM
4  Nc1nc(=S)[nH]c(C(=O)Nc2nccs2)c1-c1ccccc1                TGI     > 100 µM

====

# Test system: SNB-19 CNS
# TEST METHOD NOTES: NCI tumour cell line growth inhibition, 48 h
MEASURED QUANTITY: TGI

                                    compound  assay_value
 0  Cc1ccccc1Nc1nc2ccccc2nc1NS(=O)(=O)c1ccccc1     > 100 µM
 1   Cc1ccc(NC(=O)C(=O)Cc2cccc[n+]2[O-])cc1C     > 100 µM
 2  CC1CC(C)C(C(O)CC2CC(=O)N(c3ccccc3)C(=O)C2)C(O)C1 (stereo not drawn)     > 100 µM
 3  CCCCC[C@@H](C/C=C/CCC(=O)NC/C(=C/Cl)[C@H]1C(=O)C(C)(C)C(=O)[C@@H](C)[C@@]1(C)O)OC        42 µM
 4  COc1ccc(N=Nc2c(N)nn3c(SC)c(C#N)c(N)nc23)cc1      37.6 µM
 5     N#CCCN(CCC#N)c1ccc(C=Nc2ccc(F)cc2)cc1     > 100 µM
 6  O=c1[nH]c2ccc([N+](=O)[O-])c(Cl)c2c2ccccc12      10.5 µM
 7  CCOC(=O)c1cn(CC)c2ccc3c(c2c1=O)S(=O)(=O)C=C3     > 100 µM
 8  NC(=O)c1ncn(C2OC(CO)C(O)C2O)c1N (stereo not drawn)     > 100 µM
 9  C[C@]12CCC3=NCCN3C1=CC[C@@H]1[C@@H]2CC[C@@]2(C)[C@H]1CC[C@]2(C)O     > 100 µM
10  O=C(c1ccccc1)c1cc(Cl)ccc1NCn1nnc2ccccc21     > 100 µM
11  CC(=O)[O-].[Mn+3].[O-]c1ccc(Cl)cc1C=NCCN=Cc1cc(Cl)ccc1[O-]     > 100 µM
12  CN(C)c1ccc(C2CC(C)(O)Oc3cc4c(cc32)OCO4)cc1 (stereo not drawn)     > 100 µM
13  O=c1cccccc1[O-].O=c1cccccc1[O-].O=c1cccccc1[O-].[Sm+3]     > 100 µM
14  Cc1ccc(C2=C(Cl)C(=O)C(c3ccc(C)cc3)=C(Cl)C2=O)cc1     > 100 µM
15    COC(=O)c1sc(=NC(=S)N2CCCCC2)sc1C(=O)OC     > 100 µM
16  C[n+]1c(-c2ccc(/C=N/NC(=O)C(=O)N/N=C/c3ccc(-c4cn5ccccc5[n+]4C)cc3)cc2)cn2ccccc21     > 100 µM
17  O=S(=O)(O)c1cc(O)c(N=Nc2ccc3ccccc3c2O)c2ccccc12     > 100 µM

Reference for the values: PubChem BioAssay (NCI)
